Item-by-item account of CL
- Test system: Canis familiaris
- assay remarks: Unbound plasma clearance in Beagle dog at 0.5 mg/kg, iv
- Assay type: ADME, organism-based, Canis lupus familiaris
- Set-up: dose 0.5 mg/kg, route intravenous
- assay context: in vivo

{"compound": "COc1cc2nc(N3CCCN(C(=O)N4CCOCC4)CC3)nc(N)c2c(-c2ccccn2)c1OC", "test system": "Canis familiaris", "unit spec": "mL/min/kg", "CL": 60}
{"compound": "COc1cc2c(cc1OC)CN(c1nc(N3CCCN(C(=O)N4CC(O)C(O)C4)CC3)nc3cc(OC)c(OC)cc13)CC2 (stereo unspecified)", "test system": "Canis familiaris", "unit spec": "mL/min/kg", "CL": 470}
{"compound": "COc1cc2nc(N3CCCN(C(=O)N4CCOCC4)CC3)cc(N)c2c(-c2ccccc2)c1OC", "test system": "Canis familiaris", "unit spec": "mL/min/kg", "CL": 88}
{"compound": "COc1cc2nc(N3CCCN(C(=O)N4CCOCC4)CC3)nc(N)c2cc1-c1ccccn1", "test system": "Canis familiaris", "unit spec": "mL/min/kg", "CL": 200}
{"compound": "COc1cc2nc(N3CCc4ncccc4C3)nc(N)c2c(-c2ncccn2)c1OC", "test system": "Canis familiaris", "unit spec": "mL/min/kg", "CL": 450}
{"compound": "COc1cc2nc(N3CCCN(C(=O)N4CCOCC4)CC3)cc(N)c2c(-c2ccc(F)cc2)c1OC", "test system": "Canis familiaris", "unit spec": "mL/min/kg", "CL": 536}
